System: horny layer
assay overview: Skin conductance (water content of horny layer) after two-week coating on cheeks
Format: in vivo, women
Parameters: key: conductance meter reading; ≤5 = severe roughness, ≥20 = no roughness
condition info: Invention Product 1: vaseline and compound 3:1 by weight; two weeks; 20° C., 40% humidity; 5 and smaller = severe roughness, 20 or greater = no substantial roughness
endpoint name: Skin conductance
Respond using a number only.

Worked set:
[
  {
    "compound": "CCCCCCCCCCOCC(O)CN(CCO)CC(O)COCCCCCCCCCC (centres unmarked)",
    "Skin conductance": 8
  },
  {
    "compound": "CCCCCCCCCCOCC(O)CN(CCCO)C(=O)CCCCCCCCC (centres unmarked)",
    "Skin conductance": 10
  },
  {
    "compound": "CCCCCCCCCCCCCCCCOCC(O)CN(CCO)CC(O)COCCCCCCCCCCCCCCCC (centres unmarked)",
    "Skin conductance": 18
  }
]

# input Quick check: Skin conductance of CCCCCCCCCCCCCCCCOCC(O)CN(CCO[C@@H]1O[C@H](CO)[C@@H](O)[C@H](O)[C@H]1NC(C)=O)C(=O)CCCCCCCCCCCCCCC (some centres unmarked) ?
# output 31

# input Reported Skin conductance for CCCCCCCCCCCCCCCCOCC(O)CN(CCCCCCO)C(=O)CCCCCCCCCCCCCCC (centres unmarked) : what is it?
# output 18
